Protocol details: Inhibition of Saccharomyces cerevisiae ribonucleotide reductase
Property label: IC50 (µM)
The figure you give is taken to be in µM; do not add the unit.

[[record]]
substance = "H-NFDDDF-OH"
recorded_result = 30


I am curious: what IC50 value has been reported for H-FTFNEDF-OH ?
44
